targetOfAssay: Full length WRN protein (aa 2-1432) (Homo sapiens (Human), UniProt Q14191)
Sequence (Q14191 2-1432): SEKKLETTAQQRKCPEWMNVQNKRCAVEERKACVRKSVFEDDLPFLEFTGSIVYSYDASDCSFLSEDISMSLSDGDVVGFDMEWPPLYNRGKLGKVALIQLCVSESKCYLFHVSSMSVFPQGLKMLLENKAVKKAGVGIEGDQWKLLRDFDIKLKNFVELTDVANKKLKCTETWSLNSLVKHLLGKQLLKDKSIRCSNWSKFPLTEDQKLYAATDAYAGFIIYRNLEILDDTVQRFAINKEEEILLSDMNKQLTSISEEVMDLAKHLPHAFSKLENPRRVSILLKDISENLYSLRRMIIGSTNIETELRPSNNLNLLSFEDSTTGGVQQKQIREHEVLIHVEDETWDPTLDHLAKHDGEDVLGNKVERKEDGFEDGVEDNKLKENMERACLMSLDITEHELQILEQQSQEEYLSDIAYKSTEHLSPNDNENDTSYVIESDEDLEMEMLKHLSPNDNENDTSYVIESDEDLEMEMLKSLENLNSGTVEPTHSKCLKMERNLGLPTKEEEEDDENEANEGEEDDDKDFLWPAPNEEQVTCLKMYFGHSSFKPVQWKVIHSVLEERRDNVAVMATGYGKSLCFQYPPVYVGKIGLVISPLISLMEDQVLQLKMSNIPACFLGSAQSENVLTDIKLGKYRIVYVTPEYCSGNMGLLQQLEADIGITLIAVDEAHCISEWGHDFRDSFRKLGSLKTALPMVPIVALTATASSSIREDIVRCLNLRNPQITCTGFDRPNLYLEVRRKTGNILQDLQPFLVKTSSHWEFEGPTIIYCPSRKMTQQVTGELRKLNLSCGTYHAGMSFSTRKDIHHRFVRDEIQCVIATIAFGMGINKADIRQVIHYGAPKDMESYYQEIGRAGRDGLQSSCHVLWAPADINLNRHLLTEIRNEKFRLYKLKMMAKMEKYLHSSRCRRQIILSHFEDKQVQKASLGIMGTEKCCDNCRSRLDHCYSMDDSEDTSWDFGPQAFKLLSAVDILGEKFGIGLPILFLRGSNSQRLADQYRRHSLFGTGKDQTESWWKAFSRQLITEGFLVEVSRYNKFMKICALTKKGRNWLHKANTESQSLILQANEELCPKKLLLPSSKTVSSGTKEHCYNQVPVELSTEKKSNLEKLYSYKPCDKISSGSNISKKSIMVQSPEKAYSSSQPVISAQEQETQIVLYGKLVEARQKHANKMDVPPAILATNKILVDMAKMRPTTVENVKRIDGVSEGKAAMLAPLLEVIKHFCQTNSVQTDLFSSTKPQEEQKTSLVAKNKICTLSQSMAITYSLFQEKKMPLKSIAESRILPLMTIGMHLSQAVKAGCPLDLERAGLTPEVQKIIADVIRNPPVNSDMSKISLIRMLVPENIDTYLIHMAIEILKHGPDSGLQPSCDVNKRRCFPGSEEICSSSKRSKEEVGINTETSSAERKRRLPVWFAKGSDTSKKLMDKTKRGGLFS
assayText: WRN ATPase ADP-Glo biochemical assay, Assay Format B (100 μM ATP)
conditionsUsed: 0.25 nM WRN, 100 nM C6.18 ssDNA, 60 min preincubation, read-out: ATPase ADPGlo AC50 (uM)- Assay Format B
property: AC50

Please report AC50 for every entry that follows.
1. C=CC(=O)N1CCc2nn(-c3ccc(C4CCC4)cc3O)c3c2C(C1)N(C(=O)c1cnc(C(F)(F)F)cc1N)CC3 (centres unmarked)
2. C=CC(=O)N1CCc2nn(-c3ccc(C4CCC4(F)F)cc3O)c3c2C(C1)N(C(=O)c1ccc(Br)c2[nH]cnc12)CC3 (centres unmarked)
3. C=CC(=O)N1CC(C)c2nn(-c3ccc(C4CC4)cc3O)c3c2C(C1)N(C(=O)c1cnc(C(F)(F)F)cc1N)CC3 (centres unmarked) [Compound 195]
4. C=CC(=O)N1CCc2nn(-c3ccc(C(C)C)cc3)c3c2C(C1)N(C(=O)c1ccc(Br)c2c1CCO2)CC3 (centres unmarked)
5. C=CC(=O)N1CCc2nn(-c3ccc(C4CC4)cc3)c3c2C(C1)N(C(=O)c1ccn(CC(F)(F)F)c(=O)c1)CC3 (centres unmarked)
6. C=CC(=O)N1CCc2nn(-c3ccc(C4CC4)cc3)c3c2C(C1)N(C(=O)c1cnc(C(C)(F)F)cc1N)CC3 (centres unmarked)
7. C=CC(=O)N1CC(OCC2=CCOCC2)c2nn(-c3ccc(C4CCC4)cc3)c3c2C(C1)N(C(=O)c1cnc(C(F)(F)F)cc1N)CC3 (centres unmarked)
8. C=CC(=O)N1CCc2nc(-c3ccc(C4CCC4)cc3)n3c2C(C1)N(C(=O)c1cnc(C(F)(F)F)c(O)c1)CC3 (centres unmarked)

Out:
1: 0.005 to 0.015 µM; 2: 0.015 to 0.055 µM; 3: 0.005 to 0.015 µM; 4: 0.015 to 0.055 µM; 5: > 0.055 µM; 6: 0.0015 to 0.005 µM; 7: 0.0015 to 0.005 µM; 8: 0.015 to 0.055 µM

Value sought for every listed molecule: AC50.
1. C=CC(=O)N1CCc2nn(-c3ccc(C4CC4)cc3)c3c2C(C1)N(C(=O)c1cnc2c(C)nn(C)c2c1)CC3 (centres unmarked)
2. C=CC(=O)N1CCc2nn(-c3ccc(C(F)(F)F)nc3N)c3c2C(C1)N(C(=O)c1ccc(Br)c2[nH]c(C(F)F)nc12)CC3 (centres unmarked)
3. C=CC(=O)N1CC(OCC2CCOCC2)c2nn(-c3ccc(C4CC4)cc3)c3c2C(C1)N(C(=O)c1cnc(C(F)(F)F)cc1N)CC3 (centres unmarked)
4. C=CC(=O)N1CCc2nn(-c3ccc(C(C)C)cc3O)c3c2C(C1)N(C(=O)c1ccc(C(F)(F)F)nc1N)CC3 (centres unmarked)

Out:
> 0.055 µM
0.015 to 0.055 µM
0.005 to 0.015 µM
0.005 to 0.015 µM
